Reported viability, T/C values for the following molecules.
# Test system: 855422-203-R-J1-PDC spheroids with HUVEC/MSC, viability
# assay: Anticancer human tumor 855422-203-R-J1-PDC patient-derived bladder carcinoma cell line growth inhibition [PI3K]
# measurement.setup: second compound 1 µM; first compound 0.1 µM; stronger effect = lower value

molecule: C[C@@H](NC(=O)c1ncnc(N)c1Cl)c1ncc(C(=O)Nc2cc(C(F)(F)F)c(Cl)cn2)s1 + Cc1nc(NC(=O)N2CCCC2C(N)=O)sc1-c1ccnc(C(C)(C)C(F)(F)F)c1
viability, T/C (%): 67.2
//
molecule: CCN1CCN(Cc2ccc(Nc3ncc(F)c(-c4cc(F)c5nc(C)n(C(C)C)c5c4)n3)nc2)CC1 + CC(Nc1ccc2c(c1)OCCn1cc(N3C(=O)OCC3C(F)F)nc1-2)C(N)=O
viability, T/C (%): 14.2
//
molecule: CC(C)n1nc(-c2ccc3oc(N)nc3c2)c2c(N)ncnc21 + Cc1nc(NC(=O)N2CCCC2C(N)=O)sc1-c1ccnc(C(C)(C)C(F)(F)F)c1
viability, T/C (%): 8.4

----------
# Tested on: 855422-203-R-J1-PDC spheroids with HUVEC/MSC, viability
# assay: Anticancer human tumor 855422-203-R-J1-PDC cell line growth inhibition [PI3K];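 further: agents incubated with spheroids for one week before read-out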
# measurement.setup: curve of first compound; second compound 0.316 µM
pIC50: −log10 of the molar value.
Note to self: values exactly at 6 are criterion met. So pIC50 at or above 6 is criterion met, below is criterion not met.

molecule: CCN1CCN(Cc2ccc(Nc3ncc(F)c(-c4cc(F)c5nc(C)n(C(C)C)c5c4)n3)nc2)CC1 + CC(Nc1ccc2c(c1)OCCn1cc(N3C(=O)OCC3C(F)F)nc1-2)C(N)=O
assayed.target: 855422-203-R-J1-PDC spheroids with HUVEC/MSC, viability
class: criterion met
//
molecule: Cn1ncnc1[C@H]1c2n[nH]c(=O)c3cc(F)cc(c23)N[C@@H]1c1ccc(F)cc1 + COc1c(OCCCN2CCOCC2)ccc2c3n(c(=NC(=O)c4cnc(N)nc4)nc12)CCN3
assayed.target: 855422-203-R-J1-PDC spheroids with HUVEC/MSC, viability
class: criterion met
//
molecule: Cn1nccc1Nc1nccc(-c2ccn(C(CO)c3ccc(Cl)c(F)c3)c(=O)c2)n1 (stereo unspecified) + CC(Nc1ncnc2nc[nH]c12)c1cc2cccc(Cl)c2c(=O)n1-c1ccccc1
assayed.target: 855422-203-R-J1-PDC spheroids with HUVEC/MSC, viability
class: criterion not met
//
molecule: CCN1CCN(Cc2ccc(Nc3ncc(F)c(-c4cc(F)c5nc(C)n(C(C)C)c5c4)n3)nc2)CC1 + COc1c(OCCCN2CCOCC2)ccc2c3n(c(=NC(=O)c4cnc(N)nc4)nc12)CCN3
assayed.target: 855422-203-R-J1-PDC spheroids with HUVEC/MSC, viability
class: criterion met
//
molecule: CC1(C)CCC(CN2CCN(c3ccc(C(=O)NS(=O)(=O)c4ccc(NCC5CCOCC5)c([N+](=O)[O-])c4)c(Oc4cnc5[nH]ccc5c4)c3)CC2)=C(c2ccc(Cl)cc2)C1 + CC(Nc1ncnc2nc[nH]c12)c1cc2cccc(Cl)c2c(=O)n1-c1ccccc1
assayed.target: 855422-203-R-J1-PDC spheroids with HUVEC/MSC, viability
class: criterion not met
//
molecule: CC(C)n1nc(-c2ccc3oc(N)nc3c2)c2c(N)ncnc21 + Cc1nc(NC(=O)N2CCCC2C(N)=O)sc1-c1ccnc(C(C)(C)C(F)(F)F)c1
assayed.target: 855422-203-R-J1-PDC spheroids with HUVEC/MSC, viability
class: criterion met
//
molecule: Cn1cnc2c(F)c(Nc3ccc(Br)cc3Cl)c(C(=O)NOCCO)cc21 + COc1c(OCCCN2CCOCC2)ccc2c3n(c(=NC(=O)c4cnc(N)nc4)nc12)CCN3
assayed.target: 855422-203-R-J1-PDC spheroids with HUVEC/MSC, viability
class: criterion met
//
molecule: Cn1nccc1Nc1nccc(-c2ccn(C(CO)c3ccc(Cl)c(F)c3)c(=O)c2)n1 (stereo unspecified) + COc1c(OCCCN2CCOCC2)ccc2c3n(c(=NC(=O)c4cnc(N)nc4)nc12)CCN3
assayed.target: 855422-203-R-J1-PDC spheroids with HUVEC/MSC, viability
class: criterion met
//
molecule: Cn1cnc2c(F)c(Nc3ccc(Br)cc3Cl)c(C(=O)NOCCO)cc21 + CC(Nc1ncnc2nc[nH]c12)c1cc2cccc(Cl)c2c(=O)n1-c1ccccc1
assayed.target: 855422-203-R-J1-PDC spheroids with HUVEC/MSC, viability
class: criterion not met
